- protocol.description: wn = mass fraction of the nth substance listed
- details: 297.15 K; 101 kPa; Liquid; Alternating current cell with electrodes; w1 = 0.1
electrical conductivity values, listed per item

| compound | unit.descriptor | electrical conductivity |
| --- | --- | --- |
| Cn1cc[n+](CCO)c1.[Br-] [3-(2-hydroxyethyl)-1-methyl-1H-imidazolium bromide] + O | S/m | 3.58 |
| CCCCn1cc[n+](C)c1.[O-][Cl+3]([O-])([O-])[O-] [1-butyl-3-methylimidazolium perchlorate] + O | S/m | 2.18 |
| CCCCn1cc[n+](C)c1.COS(=O)(=O)[O-] [1-butyl-3-methylimidazolium methyl sulfate] + O | S/m | 1.73 |
